Value source: paper PMC1636342

# System: Bs-CspB K13Q (Bacillus subtilis, UniProt P32081 1-67, K13Q)
# Protocol summary: tryptophan fluorescence quenching
Property label: Kd (nM)
Give bare numbers, in nM.

Prompt: Consider the binder TTTTTTT (ssDNA) [dT7] and give its measured Kd.
Response: 25
